# assay_system: T1, human glucagon receptor (human, UniProt P47871 26-477)
# T1 construct: whole, on cells; reporter assay used whole cells; also called hGCGR
# T1 sequence (P47871 26-477): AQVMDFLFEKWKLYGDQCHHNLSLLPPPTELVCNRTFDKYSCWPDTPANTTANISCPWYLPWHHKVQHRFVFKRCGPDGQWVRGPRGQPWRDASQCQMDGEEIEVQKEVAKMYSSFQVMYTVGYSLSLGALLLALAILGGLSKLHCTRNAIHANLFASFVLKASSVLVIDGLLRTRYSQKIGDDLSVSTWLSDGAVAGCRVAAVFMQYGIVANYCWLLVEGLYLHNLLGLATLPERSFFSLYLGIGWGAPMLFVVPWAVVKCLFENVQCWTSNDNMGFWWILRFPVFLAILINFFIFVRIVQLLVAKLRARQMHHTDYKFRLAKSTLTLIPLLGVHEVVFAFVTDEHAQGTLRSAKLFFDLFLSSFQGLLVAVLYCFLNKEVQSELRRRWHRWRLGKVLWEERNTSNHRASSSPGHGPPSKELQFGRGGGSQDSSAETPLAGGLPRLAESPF
# assay_method_text: displacement of [125I]-glucagon from BHK membranes with human glucagon receptor, SPA, no serum albumin
pIC50: −log10 of the molar value. Starred links: 1 amine or outer side, 2 acyl side, 3 side chain; linkers in the order of their positions; H or OH if unused. Non-standard residues stand in square brackets, D forms with d. Groups on a side chain read outwards from the residue. No end group written: not given here. *: point of attachment. C18 diacid = O=C(O)CCCCCCCCCCCCCCCCC(=O)*; γGlu = O=C(O)[C@H](CCC(=O)[*:2])N[*:1]; Ac4c = NC1(C(=O)O)CCC1; AEEA = NCCOCCOCC(=O)O; Aib = CC(C)(N)C(=O)O
readout: pIC50

H[Aib]QGTFTSDLSRYLDARRARDFVQWLIK([γGlu-γGlu-γGlu-C18 diacid])T-NH2 (also called Chem. 14; Chem 14) | 8.19
HXQGTFTSDYSRYLESRRARDFVQWLIKT (Acb at position 2; epsilon-N of Lys28 acylated with the substituent given in the name (17-carboxyheptadecanoyl-2xgGlu-Ado-gGlu-Ado-gGlu-Ado-gGlu-); C-terminal amide, also called Chem. 36; Chem 36) | 8.19
H[Aib]QGTFTSDLSKYLDARRARDFVQWLIK([γGlu-γGlu-γGlu-C18 diacid])T-NH2 (also called Chem. 15; Chem 15) | 8.77
H[Ac4c]QGTFTSDLSKYLESRRAREFVQWLIK([γGlu-γGlu-AEEA-AEEA-γGlu-γGlu-C18 diacid])T-NH2 (also called Chem. 13; Chem 13) | 8.74
HXQGTFTSDYSRYLESRRARDFVQWLIKT (Aib at position 2; epsilon-N of Lys28 acylated with the substituent given in the name (17-carboxyheptadecanoyl-2xgGlu-Ado-gGlu-Ado-gGlu-Ado-gGlu-); C-terminal amide, also called Chem. 37; Chem 37) | 8.18

1: H[Ac4c]QGTFTSDLSKYLESRRAREFVQWLIK([Gly-Ser-Glu-Gly-Ser-γGlu-γGlu-C18 diacid])T-NH2 (also called Chem. 16; Chem 16)
2: H[Ac4c]QGTFTSDLSKYLESRRAREFVQWLIK([AEEA-AEEA-γGlu-γGlu-C18 diacid])T-NH2 (also called Chem. 18; Chem 18)
Lab log: flag the item ( 1 or 2 ) with the smaller pIC50 figure. Select an item and report its label.
2
(2: 7.95, 1: 8.57)
